Where do the numbers come from? From patent US20230002496A1.

Molecular target: T1, human GM-CSFRα, full length on cells (human, UniProt P15509 23-400)
T1 sequence: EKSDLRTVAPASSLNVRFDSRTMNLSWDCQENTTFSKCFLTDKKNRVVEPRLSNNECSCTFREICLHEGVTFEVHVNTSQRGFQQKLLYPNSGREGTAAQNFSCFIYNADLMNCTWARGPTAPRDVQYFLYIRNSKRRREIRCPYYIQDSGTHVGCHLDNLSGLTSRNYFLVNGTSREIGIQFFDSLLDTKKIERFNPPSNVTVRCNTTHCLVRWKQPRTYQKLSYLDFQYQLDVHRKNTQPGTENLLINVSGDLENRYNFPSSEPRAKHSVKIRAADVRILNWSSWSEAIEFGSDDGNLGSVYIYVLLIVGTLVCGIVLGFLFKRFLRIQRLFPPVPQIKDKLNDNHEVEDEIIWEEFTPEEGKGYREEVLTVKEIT
Assay: cell-based or functional assay
Listing: IC50, TF-1 cell proliferation of selected binders

| binder | IC50, TF-1 cell proliferation, µg/mL |
| --- | --- |
| E35-scFv HT28A (scFv, V domains shown) VH: QMQLVQSGAEVKKPGASVKVSCKVSGYALTELSIHWVRQAPGKGLEWMGGFDPEDGETIYAQKFQGRVTMTGDTSTDTAYLELSSLRSEDTALYYCATGRYTSLATTYGFDYWGQGTLVTVSS VL: EIVMTQSPATLSLSPGERATLSCRASQSVSSYLAWYQQKPGQAPRLLIYGASSRATGIPDRFSGSGSGTDFTLTISRLEPEDFAVYYCQQYDNWPYTFGQGTKLEIK | 0.13 |
| E35-scFv LD92V (scFv, V domains shown) VH: QMQLVQSGAEVKKPGASVKVSCKVSGYTLTELSIHWVRQAPGKGLEWMGGFDPEDGETIYAQKFQGRVTMTGDTSTDTAYLELSSLRSEDTALYYCATGRYTSLATTYGFDYWGQGTLVTVSS VL: EIVMTQSPATLSLSPGERATLSCRASQSVSSYLAWYQQKPGQAPRLLIYGASSRATGIPDRFSGSGSGTDFTLTISRLEPEDFAVYYCQQYVNWPYTFGQGTKLEIK | 0.387 |
| E35-scFv HE31C (scFv, V domains shown) VH: QMQLVQSGAEVKKPGASVKVSCKVSGYTLTCLSIHWVRQAPGKGLEWMGGFDPEDGETIYAQKFQGRVTMTGDTSTDTAYLELSSLRSEDTALYYCATGRYTSLATTYGFDYWGQGTLVTVSS VL: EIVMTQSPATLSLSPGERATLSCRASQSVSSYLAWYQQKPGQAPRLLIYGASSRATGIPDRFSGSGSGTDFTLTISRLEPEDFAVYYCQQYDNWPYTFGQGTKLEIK | 0.36 |
| E35-scFv LG50L (scFv, V domains shown) VH: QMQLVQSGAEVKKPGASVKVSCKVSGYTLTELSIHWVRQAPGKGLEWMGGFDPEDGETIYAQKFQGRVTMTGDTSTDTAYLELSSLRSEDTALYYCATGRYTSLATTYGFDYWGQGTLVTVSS VL: EIVMTQSPATLSLSPGERATLSCRASQSVSSYLAWYQQKPGQAPRLLIYLASSRATGIPDRFSGSGSGTDFTLTISRLEPEDFAVYYCQQYDNWPYTFGQGTKLEIK | 3.9 |
| E35-scFv LS26Q (scFv, V domains shown) VH: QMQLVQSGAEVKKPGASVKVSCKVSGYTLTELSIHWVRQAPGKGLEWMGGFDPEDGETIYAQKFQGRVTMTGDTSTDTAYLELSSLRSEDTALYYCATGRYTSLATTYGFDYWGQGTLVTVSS VL: EIVMTQSPATLSLSPGERATLSCRAQQSVSSYLAWYQQKPGQAPRLLIYGASSRATGIPDRFSGSGSGTDFTLTISRLEPEDFAVYYCQQYDNWPYTFGQGTKLEIK | 0.075 |
| E35-scFv LG50S (scFv, V domains shown) VH: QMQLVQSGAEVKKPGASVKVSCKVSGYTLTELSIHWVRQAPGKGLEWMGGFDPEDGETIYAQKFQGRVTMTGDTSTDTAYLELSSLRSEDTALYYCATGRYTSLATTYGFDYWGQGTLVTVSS VL: EIVMTQSPATLSLSPGERATLSCRASQSVSSYLAWYQQKPGQAPRLLIYSASSRATGIPDRFSGSGSGTDFTLTISRLEPEDFAVYYCQQYDNWPYTFGQGTKLEIK | 1.3 |
| E35-scFv LD92M (scFv, V domains shown) VH: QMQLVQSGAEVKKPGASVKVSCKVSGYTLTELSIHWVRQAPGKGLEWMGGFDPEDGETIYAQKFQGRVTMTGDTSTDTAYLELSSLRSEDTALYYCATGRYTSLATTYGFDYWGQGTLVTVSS VL: EIVMTQSPATLSLSPGERATLSCRASQSVSSYLAWYQQKPGQAPRLLIYGASSRATGIPDRFSGSGSGTDFTLTISRLEPEDFAVYYCQQYMNWPYTFGQGTKLEIK | 0.507 |
| E35-scFv HT30S (scFv, V domains shown) VH: QMQLVQSGAEVKKPGASVKVSCKVSGYTLSELSIHWVRQAPGKGLEWMGGFDPEDGETIYAQKFQGRVTMTGDTSTDTAYLELSSLRSEDTALYYCATGRYTSLATTYGFDYWGQGTLVTVSS VL: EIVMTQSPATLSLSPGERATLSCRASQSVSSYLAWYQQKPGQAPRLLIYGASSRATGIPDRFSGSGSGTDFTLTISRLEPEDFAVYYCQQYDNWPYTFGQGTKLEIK | 0.213 |
| E35-scFv LS31I (scFv, V domains shown) VH: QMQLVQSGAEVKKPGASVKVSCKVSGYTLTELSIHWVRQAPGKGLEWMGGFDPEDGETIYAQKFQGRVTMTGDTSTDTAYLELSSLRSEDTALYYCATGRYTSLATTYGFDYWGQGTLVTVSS VL: EIVMTQSPATLSLSPGERATLSCRASQSVSIYLAWYQQKPGQAPRLLIYGASSRATGIPDRFSGSGSGTDFTLTISRLEPEDFAVYYCQQYDNWPYTFGQGTKLEIK | 0.681 |
| E35-scFv LY32F (scFv, V domains shown) VH: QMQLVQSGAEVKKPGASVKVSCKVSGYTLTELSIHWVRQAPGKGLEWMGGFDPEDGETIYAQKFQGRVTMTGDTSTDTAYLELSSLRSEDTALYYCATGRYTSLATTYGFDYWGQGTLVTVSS VL: EIVMTQSPATLSLSPGERATLSCRASQSVSSFLAWYQQKPGQAPRLLIYGASSRATGIPDRFSGSGSGTDFTLTISRLEPEDFAVYYCQQYDNWPYTFGQGTKLEIK | 0.21 |
